# target_or_system: T1, human galectin-10 as coated in ELISA (soluble galectin-10; tag not given) (human, UniProt Q05315 1-142, limits assumed)
# T1 construct: also called coated galectin-10; Gal10
# T1 sequence: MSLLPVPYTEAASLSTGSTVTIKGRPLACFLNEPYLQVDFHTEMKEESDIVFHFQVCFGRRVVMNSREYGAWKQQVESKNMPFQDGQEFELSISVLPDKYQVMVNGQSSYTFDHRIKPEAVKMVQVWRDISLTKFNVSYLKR
# assay_details: ELISA, scFv periplasmic extract on coated soluble galectin-10, anti-Myc-HRP
recorded_endpoint: PERI-ELISA binding (OD values) (OD)
State the answer as a number, implicitly in OD.

1) scFv 4H10 (periplasmic extract, Myc-tagged) (scFv, not shown: small tags and cut ends) scFv: QVQLVESGGGLVQPGGSLRLSCAASGFTFDDYAMSWVRQAPGKGLEWVSAISWNGGSTYYAESMKGRFTISRDNAKNTLYLQMNSLKSEDAAVYYCAKDLSASGSYYHTFGSWGQGTQVTVSSGGGGSGGGGSGGGGSQAGLTQPPSVAGTLGKTVTISCAGTSSDVGYGDYVSWYQHIPGTAPKLLIYKVKTRASGIPDRFSGSKSGNTASLTISGLQSGDESDYYCASYKNGGTAVFGGGTHLTVL: 3.48
2) scFv 2E11 (periplasmic extract, Myc-tagged) (scFv, not shown: small tags and cut ends) scFv: EVQLVESGGGLVQPGGSLRLSCAASGFTFSSYAMSWVRQAPGKGLEWVSPINSGSDSASYVDSVKGRFTISRDNAKNTLYLQMNSLKPEDTAVYYCAKARTSVVAGGMDYWGKGTLVTVSSGGGGSGGGGSGGGGSQSALTQPSAVSVSLGQTARITCQGGKFGSYYVSWYQQKPGQAPVMVIYKDNERPSGIPERFSGSSSGSTSTLTISGAQAEDEGTYYCQSGSSSDNIVFGGGTELTVF: 3.51

Here's the next entry for you.
## Input Quick one: PERI-ELISA binding (OD values) for scFv 6F05 (periplasmic extract, Myc-tagged) (scFv, not shown: small tags and cut ends, also called 6F5) scFv: QLQLVESGGGLVQPGGSLRLSCAASGFTFSSYAMSWVRQAPGKGLEWVSAINSGGGSTSYADSVKGRFTISRDNAKNTLYLQMNSLKPEDTAVYYCATPGDRLWYYRYDYWGQGTQVTVSSGGGGSGGGGSGGGGSQAGLTQPPSVSGTLGKAVTISCAGTSSDIGYGNYVSWYQQLPGTAPKLLIYKVSRRASGVPDRFSGSKSGNTASLSISGLQSEDEADYYCASYRYRNNVVFGGGTHLTVL ?
## Output 3.83
